Biological target: T1, mouse SIRPβ1 on CHO cells (mouse)
T1 construct: Whole entry
T1 chain: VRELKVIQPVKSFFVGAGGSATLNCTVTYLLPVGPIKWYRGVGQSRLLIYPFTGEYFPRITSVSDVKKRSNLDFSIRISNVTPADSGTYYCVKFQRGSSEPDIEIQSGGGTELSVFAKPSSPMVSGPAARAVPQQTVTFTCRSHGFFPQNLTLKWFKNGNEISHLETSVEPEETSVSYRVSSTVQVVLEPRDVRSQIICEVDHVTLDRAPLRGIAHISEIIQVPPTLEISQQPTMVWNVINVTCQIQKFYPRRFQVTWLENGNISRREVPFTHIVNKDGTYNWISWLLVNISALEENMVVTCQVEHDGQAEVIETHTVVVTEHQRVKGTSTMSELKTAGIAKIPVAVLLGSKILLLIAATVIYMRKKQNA
Assay: flow cytometry;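 further: antibody binding to cells detected with a PE-labelled secondary antibody, given as mean fluorescence intensity relative to background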
Kindly supply the reported FOB values for the records listed here.
Numbers only, in fold over background.

INSERT INTO measurements (binder, measure_unit, meas_value) VALUES
  ('SB-1-2 (antibody, V domains shown, IgG) VH: QVQLVESGGGVVQPGRSLRLSCAASGFTFGSFGMNWVRQAPGKGLEWVSAITASGGSTFYADSVKGRFTISRDNSKNTLYLQMNSLRAEDTAVYYCAKDFTEVVGWLGMDVWGQGTTVTVSS VL: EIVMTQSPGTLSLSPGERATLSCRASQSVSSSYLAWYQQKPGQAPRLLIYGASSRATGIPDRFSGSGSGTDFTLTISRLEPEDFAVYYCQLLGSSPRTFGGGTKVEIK', 'fold over background', 1),
  ('SB-40 (antibody, V domains shown, IgG; also called SB-40 (p)) VH: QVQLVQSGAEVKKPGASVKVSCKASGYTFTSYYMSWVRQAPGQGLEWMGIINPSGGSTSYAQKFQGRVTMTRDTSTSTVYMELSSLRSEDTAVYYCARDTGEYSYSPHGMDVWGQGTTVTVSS VL: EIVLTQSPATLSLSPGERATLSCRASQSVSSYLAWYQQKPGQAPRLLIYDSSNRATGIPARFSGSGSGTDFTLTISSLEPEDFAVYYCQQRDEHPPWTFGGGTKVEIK', 'fold over background', 1);

Please examine the following record next.
Recorded FOB (binder SB-8-15 (antibody, V domains shown, IgG) VH: QVQLQESGPGLVKPSETLSLTCAVSGYSISAHYYWGWIRQPPGKGLEWIGSIYQSGHTYYNPSLKSRVTISVDTSKNQFSLKLSSVTAADTAVYYCARGGAMTPAGMDVWGQGTTVTVSS VL: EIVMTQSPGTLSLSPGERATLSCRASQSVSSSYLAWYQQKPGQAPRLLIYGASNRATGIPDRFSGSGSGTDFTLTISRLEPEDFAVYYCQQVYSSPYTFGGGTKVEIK ): 1
